growth: recorded values
- Test system: OVCAR-5 ovarian
- experimental_protocol: NCI-60 one-dose screen, 48 h (100 = growth as untreated, 0 = no growth, -100 = all killed)
- condition_info: 10 µM
The panel holds about 83,000 compounds, 20% with a hit somewhere; the sample as a whole holds those more often.

{"compound": "COc1ccc2nc(/C=C/c3ccc(N(C)C)cc3)sc2c1", "measurement_target": "OVCAR-5 ovarian", "growth (%)": 97.4}
{"compound": "O=c1cc(CSc2nnc(-c3ccccc3)n2-c2ccc(F)cc2)c2ccc3ccccc3c2o1", "measurement_target": "OVCAR-5 ovarian", "growth (%)": 94}
{"compound": "CC(C)c1[nH]nc2c(NCc3ccc(-c4ccccn4)cc3)nc(SCCN)nc12", "measurement_target": "OVCAR-5 ovarian", "growth (%)": 13.6}
{"compound": "O=[N+]([O-])C1CC2C=CC1C2 (stereo unspecified)", "measurement_target": "OVCAR-5 ovarian", "growth (%)": 104}
{"compound": "O=C(C=P(c1ccccc1)(c1ccccc1)c1ccccc1)c1ccc(Br)cc1", "measurement_target": "OVCAR-5 ovarian", "growth (%)": 104}
{"compound": "CCN(CC)c1ccc(/C=C/C2=[N+](C)c3ccccc3C2(C)C)c(C)c1", "measurement_target": "OVCAR-5 ovarian", "growth (%)": 30.6}
{"compound": "Cc1ccc([P+](Cc2ccc([N+](=O)[O-])cc2)(c2ccc(C)cc2)c2ccc(C)cc2)cc1", "measurement_target": "OVCAR-5 ovarian", "growth (%)": 72.9}
{"compound": "CCCn1c(=O)c2c(nc(-c3cccc(OCCCCl)c3)n2C)n(CCC)c1=O", "measurement_target": "OVCAR-5 ovarian", "growth (%)": 73.1}
{"compound": "Clc1ccc(-c2nc(-c3cccs3)cn3ccnc23)cc1", "measurement_target": "OVCAR-5 ovarian", "growth (%)": 108}
{"compound": "C#CCn1c(-c2cccc(OCCCCl)c2)nc2c1c(=O)n(C)c(=O)n2C", "measurement_target": "OVCAR-5 ovarian", "growth (%)": 98.9}
{"compound": "Cc1noc(C)c1-c1ccc2nc(NC(=O)[C@H]3CCN(C#N)C3)cn2c1", "measurement_target": "OVCAR-5 ovarian", "growth (%)": 92.7}
{"compound": "COC(=O)[C@]12CC[C@@H](C)[C@H](C)[C@@H]1C1=CC[C@@H]3[C@@]4(C)C/C(=N\\O)[C@H](O)[C@@]5(C)COC(=C45)C[C@@]3(C)[C@]1(C)CC2", "measurement_target": "OVCAR-5 ovarian", "growth (%)": -75.4}
{"compound": "Cc1cc(C)c(/C=C2\\C(=O)Nc3ccc(NC(=O)CCCCCCC(=O)NO)cc32)[nH]1", "measurement_target": "OVCAR-5 ovarian", "growth (%)": 15.9}
{"compound": "COc1ccc(C2=NNC(c3sc(Cl)nc3Cl)C2)cc1 (stereo unspecified)", "measurement_target": "OVCAR-5 ovarian", "growth (%)": 123}
{"compound": "Fc1cc(-c2ncc(-c3cc(F)c(F)c(F)c3)c(NC3CCCCCC3)n2)cc(F)c1F", "measurement_target": "OVCAR-5 ovarian", "growth (%)": 110}
{"compound": "CN1/C(=C\\C(I)C(I)C2=[N+](C)c3ccccc3C2(C)C)C(C)(C)c2ccccc21 (stereo unspecified)", "measurement_target": "OVCAR-5 ovarian", "growth (%)": 24.9}
{"compound": "COc1ccc(-c2cc(/C=C3\\C(=O)Nc4cc(Cl)ccc43)[nH]n2)cc1", "measurement_target": "OVCAR-5 ovarian", "growth (%)": 69.4}
{"compound": "C(=C\\c1nc2ccccc2s1)/c1ccc(N2CCOCC2)s1", "measurement_target": "OVCAR-5 ovarian", "growth (%)": 112}
{"compound": "COC(=O)c1cnc2c(c1)Oc1ccccc1-c1ccnn1-2", "measurement_target": "OVCAR-5 ovarian", "growth (%)": 108}
{"compound": "C=C1C(=O)O[C@H]2[C@H]1CC/C(COC(=O)OCCCCCOC(=O)OC/C1=C/CC[C@@]3(C)O[C@H]3[C@H]3OC(=O)C(=C)[C@@H]3CC1)=C\\CC[C@@]1(C)O[C@@H]21", "measurement_target": "OVCAR-5 ovarian", "growth (%)": -36.2}
{"compound": "NC(=O)c1ccc(Br)o1", "measurement_target": "OVCAR-5 ovarian", "growth (%)": 105}
{"compound": "Nc1c(C(=O)Nc2ccccc2F)sc2nc3c(cc12)C(=O)CCC3", "measurement_target": "OVCAR-5 ovarian", "growth (%)": 71.1}
{"compound": "CCc1ccc(Nc2cc(C)nc3nc(C)nn23)cc1", "measurement_target": "OVCAR-5 ovarian", "growth (%)": 26.4}
{"compound": "Cc1cnc(C=O)c2cccc([N+](=O)[O-])c12", "measurement_target": "OVCAR-5 ovarian", "growth (%)": 95}
{"compound": "COc1ccc2c(c1)/C(=C/c1cc(OC)c(OC)c(OC)c1)C(=O)N2C", "measurement_target": "OVCAR-5 ovarian", "growth (%)": 66.4}
{"compound": "C[N+]1=C(/C=C/c2ccc(I)cc2)C(C)(C)c2ccccc21", "measurement_target": "OVCAR-5 ovarian", "growth (%)": 90.1}
{"compound": "COc1ccc(-c2n/c(=C\\c3c(O)[nH]c4ccccc34)cc3c2=Nc2ccccc2-3)cc1", "measurement_target": "OVCAR-5 ovarian", "growth (%)": 89.1}
{"compound": "Nc1ccc(Sc2ccc3c4c2cccc4c(=O)n2c4ccccc4nc32)cc1", "measurement_target": "OVCAR-5 ovarian", "growth (%)": 85.8}
{"compound": "O=C(NC1CCCC1)c1ccc(N2CCC(NCc3cccc(C(F)(F)F)c3)CC2)cc1", "measurement_target": "OVCAR-5 ovarian", "growth (%)": 94.2}
{"compound": "Cc1cc(C)c2c(Nc3ncnc4c3sc3nc(C)cc(C)c34)n[nH]c2n1", "measurement_target": "OVCAR-5 ovarian", "growth (%)": 95.2}
{"compound": "Nc1nc2c(ncn2C2OC3COP(=O)(O)OC4C(COP(=O)(O)OC2C3O)OC(n2cnc3c(N)ncnc32)C4O)c(=O)[nH]1 (stereo unspecified)", "measurement_target": "OVCAR-5 ovarian", "growth (%)": 103}
{"compound": "CC1=CC2OC34COC3CC(OC(=O)C(F)(F)F)C4(C)C2(C)CC1 (stereo unspecified)", "measurement_target": "OVCAR-5 ovarian", "growth (%)": 101}
{"compound": "Cc1nn2c(/C=C3/C(=O)Nc4ccc(Cl)cc43)c(-c3ccccc3)nc2s1", "measurement_target": "OVCAR-5 ovarian", "growth (%)": 73.6}
{"compound": "Cc1ccc(-n2nnc3c(sc4ccccc43)c2=O)cc1", "measurement_target": "OVCAR-5 ovarian", "growth (%)": 90.3}
{"compound": "CCCCC(CC#N)(CCC)CCC", "measurement_target": "OVCAR-5 ovarian", "growth (%)": 104}
{"compound": "CCCCCCCCCCCC(=O)NCCCN(C)C", "measurement_target": "OVCAR-5 ovarian", "growth (%)": 91.1}
{"compound": "Nc1nc(SCC#CCCl)c2[nH]cnc2n1", "measurement_target": "OVCAR-5 ovarian", "growth (%)": 90.8}
{"compound": "CC(C)/C(=N/O)c1ccccc1", "measurement_target": "OVCAR-5 ovarian", "growth (%)": 103}
{"compound": "O=C(OCC1OC(n2cc(C(F)(F)F)c(=O)[nH]c2=O)CC1OC(=O)c1ccc([N+](=O)[O-])cc1)c1ccc([N+](=O)[O-])cc1 (stereo unspecified)", "measurement_target": "OVCAR-5 ovarian", "growth (%)": 82.9}
{"compound": "C#Cc1ccc(-n2c(/C=C/c3cc(OC)c(OC)c(OC)c3)nc3ncccc3c2=O)cc1", "measurement_target": "OVCAR-5 ovarian", "growth (%)": 120}
{"compound": "CC(=O)c1c(O)cc2c3c1OC(C)(C)C1CCC(C)(CC31)O2 (stereo unspecified)", "measurement_target": "OVCAR-5 ovarian", "growth (%)": 97.7}
